# STUDY SYSTEM: SNAP-eDHFR L54I (Escherichia coli, UniProt P0ABQ4, L54I)
# ASSAY PROTOCOL: biochemical
Reported values of pKd for individual entries
Answer as the number alone; pKd is minus log10 of concentration in mol/L.

[[record]]
compound = "COc1cc(NCc2ccc3nc(N)nc(N)c3c2C)cc(OC)c1OC [Trimetrexate, trimetrexate]"
study_system = "SNAP-eDHFR L54I (Escherichia coli, UniProt P0ABQ4, L54I)"
readout_kind = "pKd"
recorded_result = 10.00


Now look at this one.
pKd recorded for this compound, `CC1(C)N=C(N)N=C(N)N1OCCCOc1cc(Cl)c(Cl)cc1Cl` , is 5.59

----------
# STUDY SYSTEM: SNAP-eDHFR WT (Escherichia coli)
Reported values of IC50 for individual entries
// return numeric value only (unit: µM, not printed)

[[record]]
compound = "COc1cc(NCc2ccc3nc(N)nc(N)c3c2C)cc(OC)c1OC [Trimetrexate, trimetrexate]"
study_system = "SNAP-eDHFR WT (Escherichia coli)"
readout_kind = "IC50"
unit_annotation = "µM"
recorded_result = 0.00027


Summary: `CC1(C)N=C(N)N=C(N)N1OCCCOc1cc(Cl)c(Cl)cc1Cl` , SNAP-eDHFR WT (Escherichia coli), IC50 = 54

----------
# STUDY SYSTEM: SNAP-eDHFR L54G (Escherichia coli, UniProt P0ABQ4, L54G)
# ASSAY PROTOCOL: biochemical
READOUT KIND: pKd
Answer as the number alone; pKd is minus log10 of concentration in mol/L.

[[record]]
molecule = "COc1cc(NCc2ccc3nc(N)nc(N)c3c2C)cc(OC)c1OC [Trimetrexate, trimetrexate]"
study_system = "SNAP-eDHFR L54G (Escherichia coli, UniProt P0ABQ4, L54G)"
recorded_result = 9.19


Summary: `CC1(C)N=C(N)N=C(N)N1OCCCOc1cc(Cl)c(Cl)cc1Cl` , SNAP-eDHFR L54G (Escherichia coli, UniProt P0ABQ4, L54G), pKd = 4.82
